- Tested on: HCV 1a WT replicon
- procedure-details: microbe, parasite or virus in culture
- Type: cell-based
- particulars: Hepatitis C virus, read-out: Mean EC50 (nM) ±SD
measured-parameter: EC50 (nM)
Field: numeric (nM). Do not append units.

Data request: Quick one: EC50 for COC(=O)N[C@H](C(=O)N1CCC[C@H]1c1ncc(-c2ccc3cc(-c4ccc5nc([C@@H]6CCCN6C(=O)[C@@H](NC(=O)OC)C(C)C)[nH]c5c4)ccc3c2)[nH]1)C(C)C [ASC16, Ravidasvir] ?
Data returned: 0.03

###

- Tested on: HCV genotype 3a NS5A replicon cells
- procedure-details: Standard 3-day HCV replicon assay
- Assay type: cell-based
- particulars: Hepatitis C virus, 72 h, read-out: EC50 (nM) Mean ± SD
measured-parameter: EC50
Dear colleague, please send the value followed by its unit.

Data request: Query EC50 on HCV genotype 3a NS5A replicon cells for COC(=O)N[C@H](C(=O)N1CCC[C@H]1c1ncc(-c2ccc3cc(-c4ccc5nc([C@@H]6CCCN6C(=O)[C@@H](NC(=O)OC)C(C)C)[nH]c5c4)ccc3c2)[nH]1)C(C)C [ASC16, Ravidasvir]
Data returned: 1.14 nM

###

- Test system: bovine viral diarrhea virus (BVDV)
- procedure-details: Virus-cell protection assay
- Format: cell-based
- particulars: Bovine viral diarrhea virus isolates and strains, cell line BT
measured-parameter: EC50

Data request: Quick one: EC50 for COC(=O)N[C@H](C(=O)N1CCC[C@H]1c1ncc(-c2ccc3cc(-c4ccc5nc([C@@H]6CCCN6C(=O)[C@@H](NC(=O)OC)C(C)C)[nH]c5c4)ccc3c2)[nH]1)C(C)C [ASC16, Ravidasvir] ?
Data returned: > 10 µM

###

- System: BVDV, HRV-16, Flu-B
- procedure-details: Virus-cell protection assay, all tested viruses
- Format: cell-based
- particulars: Bovine viral diarrhea virus isolates and strains, HRV16, all of BVDV, read-out: EC50 against any of the tested viruses
pEC50: −log10 of the molar value.
measured-parameter: pEC50

Data request: Quick one: pEC50 for COC(=O)N[C@H](C(=O)N1CCC[C@H]1c1ncc(-c2ccc3cc(-c4ccc5nc([C@@H]6CCCN6C(=O)[C@@H](NC(=O)OC)C(C)C)[nH]c5c4)ccc3c2)[nH]1)C(C)C [ASC16, Ravidasvir] ?
Data returned: < 5.48

###

- Tested on: HCV 1a Q30K replicon
- procedure-details: microbe, parasite or virus in culture
- Assay type: cell-based
- particulars: Hepatitis C virus, read-out: Mean EC50 (nM) ±SD
measured-parameter: EC50 (nM)
Field: numeric (nM). Do not append units.

Data request: Quick one: EC50 for COC(=O)N[C@H](C(=O)N1CCC[C@H]1c1ncc(-c2ccc3cc(-c4ccc5nc([C@@H]6CCCN6C(=O)[C@@H](NC(=O)OC)C(C)C)[nH]c5c4)ccc3c2)[nH]1)C(C)C ?
Data returned: 87

###

- Tested on: HCV 3a NS5A WT replicon
- procedure-details: microbe, parasite or virus in culture
- Type: cell-based
- particulars: Hepatitis C virus, read-out: Mean EC50 (nM) ±SD
measured-parameter: EC50 (nM)
Field: numeric (nM). Do not append units.

Data request: Quick one: EC50 for COC(=O)N[C@H](C(=O)N1CCC[C@H]1c1ncc(-c2ccc3cc(-c4ccc5nc([C@@H]6CCCN6C(=O)[C@@H](NC(=O)OC)C(C)C)[nH]c5c4)ccc3c2)[nH]1)C(C)C [ASC16, Ravidasvir] ?
Data returned: 1.2

###

- Test system: influenza B virus (Flu-B)
- procedure-details: Virus-cell protection assay
- Type: cell-based
- particulars: cell line MDCK
measured-parameter: EC50

Data request: Quick one: EC50 for COC(=O)N[C@H](C(=O)N1CCC[C@H]1c1ncc(-c2ccc3cc(-c4ccc5nc([C@@H]6CCCN6C(=O)[C@@H](NC(=O)OC)C(C)C)[nH]c5c4)ccc3c2)[nH]1)C(C)C ?
Data returned: > 5 µM

###

- procedure-details: in vitro
- particulars: human, HeLa cells (uninfected; HeLa H1A in the text)
measured-parameter: CC50

Data request: Quick one: CC50 for COC(=O)N[C@H](C(=O)N1CCC[C@H]1c1ncc(-c2ccc3cc(-c4ccc5nc([C@@H]6CCCN6C(=O)[C@@H](NC(=O)OC)C(C)C)[nH]c5c4)ccc3c2)[nH]1)C(C)C ?
Data returned: > 3.3 µM

###

- System: HCV 1a Q30R replicon
- procedure-details: microbe, parasite or virus in culture
- Type: cell-based
- particulars: Hepatitis C virus, read-out: Mean EC50 (nM) ±SD
measured-parameter: EC50 (nM)
Field: numeric (nM). Do not append units.

Data request: Quick one: EC50 for COC(=O)N[C@H](C(=O)N1CCC[C@H]1c1ncc(-c2ccc3cc(-c4ccc5nc([C@@H]6CCCN6C(=O)[C@@H](NC(=O)OC)C(C)C)[nH]c5c4)ccc3c2)[nH]1)C(C)C ?
Data returned: 4.9

###

- procedure-details: in vitro
- particulars: cattle, BT cells (uninfected)
measured-parameter: CC50

Data request: Quick one: CC50 for COC(=O)N[C@H](C(=O)N1CCC[C@H]1c1ncc(-c2ccc3cc(-c4ccc5nc([C@@H]6CCCN6C(=O)[C@@H](NC(=O)OC)C(C)C)[nH]c5c4)ccc3c2)[nH]1)C(C)C [ASC16, Ravidasvir] ?
Data returned: > 10 µM

###

- procedure-details: in vitro
- particulars: dog, MDCK cells (uninfected)
measured-parameter: CC50

Data request: Quick one: CC50 for COC(=O)N[C@H](C(=O)N1CCC[C@H]1c1ncc(-c2ccc3cc(-c4ccc5nc([C@@H]6CCCN6C(=O)[C@@H](NC(=O)OC)C(C)C)[nH]c5c4)ccc3c2)[nH]1)C(C)C ?
Data returned: > 5 µM

###

- Test system: HCV 1b Y93H replicon
- procedure-details: microbe, parasite or virus in culture
- Type: cell-based
- particulars: Hepatitis C virus, read-out: Mean EC50 (nM) ±SD
measured-parameter: EC50 (nM)
Field: numeric (nM). Do not append units.

Data request: Quick one: EC50 for COC(=O)N[C@H](C(=O)N1CCC[C@H]1c1ncc(-c2ccc3cc(-c4ccc5nc([C@@H]6CCCN6C(=O)[C@@H](NC(=O)OC)C(C)C)[nH]c5c4)ccc3c2)[nH]1)C(C)C ?
Data returned: 0.9
